Test: Phase I clinical study, clinical pharmacology: food effect study (fasting vs postprandial pharmacokinetics)
Type: in vivo, human
Conditions: male, human, plasma; 180 mg oral administration under fasting conditions; patients with mCRPC, food effect study (9 patients); read-out: mean half-life (± standard deviation) (converted)
recordedMetric: half-life (h)
Response body: numeric value in h, unit text excluded.

Lab note: measured half-life of `C[C@H]1CC2(CCN(c3ccc(C(=O)N4CCC(CN5CCN(c6cccc(N[C@H]7CCC(=O)NC7=O)c6)CC5)CC4)cc3F)CC2)CN1c1ccc(C#N)c(Cl)c1` was 40.8

These measurements were taken from patent EP4740946A1.
